- Measured On: T1, SNTA1, Q13424
- T1 sequence (Q13424 82-180, limits assumed, looked up): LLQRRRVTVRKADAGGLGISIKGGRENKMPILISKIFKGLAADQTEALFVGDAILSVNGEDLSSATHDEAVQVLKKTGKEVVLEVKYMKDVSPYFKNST
- Assay Comment: holdup assay
- Design: key: below the threshold = too weak to quantify, mostly under pKd 3.1 to 4
- Condition Parameters: plain residues with an end cap or a label only (N-terminal biotin on a linker: ado-ado)
So I've got a bunch of binders here, and I need their pKd values.
Answers are plain numbers.

See these solved cases before continuing.
THHRKIHTRV [ZNF599, Q96NL3]    4.3
ADEMICITTL [CACNA1D, Q01668]    4.42
HLSTRQGTCV [ATRNL1, Q5VV63]    3.67

Query string: Please report pKd for the following binder: SRPHTNETSL [MCC, P23508]
Result string: 4.47
